assay: Stability in mouse liver microsomes; type: in vitro ADME; conditions: % remaining of compound after 60 min treatment with mouse liver microsomes
Field: MLM % at 60 min. Provide a value for each of the compounds that follow.
Return type: number; implicit unit %.

stdin: For the compound shown here, CCCCCCOc1ccc(-c2cc(C(F)(F)F)n[nH]2)c(O)c1-c1cc(C(F)(F)F)cc(C(F)(F)F)c1 , give the reported MLM % at 60 min.
stdout: 66.6

stdin: Also, Oc1c(-c2cc(C(F)(F)F)[nH]n2)ccc(OCc2ccc(Cl)cc2)c1-c1ccccc1Cl please.
stdout: 88.6

stdin: Item: Cn1nc(C(F)(F)F)cc1-c1ccc(OCc2ccc(Cl)cc2)c(-c2cccc(C#N)c2)c1O
stdout: 80.3

stdin: Now this one: Cn1nc(C(F)(F)F)cc1-c1ccc(OCc2ccc(Cl)cc2)c(-c2cc(C(F)(F)F)cc(C(F)(F)F)c2)c1O
stdout: 72.9

stdin: Now the same for Cn1nc(C(F)(F)F)cc1-c1ccc(OCc2ccc(Cl)cc2)cc1C=O
stdout: 21.8

stdin: Same question for CCc1c(OCc2ccc(Cl)cc2)ccc(-c2cc(C(F)(F)F)n[nH]2)c1O please.
stdout: 46.4

stdin: Consider next the compound CCCCCCOc1ccc(-c2cc(C(F)(F)F)nn2C)c(O)c1-c1cncc(C#N)c1 in the same way.
stdout: 52.7

stdin: For COc1cccc(-c2c(-c3ccc(OCc4ccc(Cl)cc4)cc3O)n[nH]c2C(F)(F)F)c1 then?
stdout: 74

stdin: Same question, Oc1c(-c2cc(C(F)(F)F)n[nH]2)ccc(OCCN2CCCC2)c1-c1cc(C(F)(F)F)cc(C(F)(F)F)c1 this time
stdout: 30.5

stdin: Follow-up entry: Oc1c(-c2cc(C(F)(F)F)[nH]n2)ccc(Oc2ccc(Cl)cc2)c1-c1cc(C(F)(F)F)cc(C(F)(F)F)c1
stdout: 75.8

stdin: Proceed to Oc1cc(OCc2ccc(Cl)cc2)ccc1-c1n[nH]c(C(F)(F)F)c1Oc1ccccc1Cl
stdout: 87.4

stdin: How about CCCCOc1ccc(-c2cc(C(F)(F)F)n(C)n2)c(O)c1-c1cncc(C(F)(F)F)c1 ?
stdout: 10.3

stdin: What do you get for CCOC(=O)c1cc(-c2ccc(OCc3ccc(Cl)cc3)c(-c3cc(C(F)(F)F)cc(C(F)(F)F)c3)c2O)n[nH]1 ?
stdout: 60.3

Just for reference, patent US11142504B2 is where these values come from.
